Target: HIV-1 JR-CSF Env N241A (HIV-1 JR-CSF) (UniProt P20871)
Test: cell-based or functional assay
Measured attribute: Fold IC50 increase relative to wild-type (fold)
Kindly provide the numeric value in fold only, without the unit symbol.

Binder	Fold IC50 increase relative to wild-type (fold)
PGT-125 (antibody, V domains shown) VH: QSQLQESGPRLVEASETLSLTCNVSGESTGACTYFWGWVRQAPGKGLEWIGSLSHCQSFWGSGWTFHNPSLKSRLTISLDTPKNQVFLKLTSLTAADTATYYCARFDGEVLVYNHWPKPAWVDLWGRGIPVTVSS VL: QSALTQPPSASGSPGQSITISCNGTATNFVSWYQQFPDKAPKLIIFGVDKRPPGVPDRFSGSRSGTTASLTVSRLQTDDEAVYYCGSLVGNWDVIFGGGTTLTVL	0.5

[in] Need Fold IC50 increase relative to wild-type of PGT-127 (antibody, V domains shown) VH: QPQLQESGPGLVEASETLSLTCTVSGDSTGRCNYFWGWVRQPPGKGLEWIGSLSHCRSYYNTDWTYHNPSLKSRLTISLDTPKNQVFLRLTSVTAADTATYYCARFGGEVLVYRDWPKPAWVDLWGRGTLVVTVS VL: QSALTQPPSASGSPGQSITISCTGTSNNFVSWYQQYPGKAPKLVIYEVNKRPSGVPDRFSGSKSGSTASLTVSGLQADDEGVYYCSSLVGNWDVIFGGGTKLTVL , thanks.
[out] 0.6

[in] Can you check PGT-128 (antibody, V domains shown) VH: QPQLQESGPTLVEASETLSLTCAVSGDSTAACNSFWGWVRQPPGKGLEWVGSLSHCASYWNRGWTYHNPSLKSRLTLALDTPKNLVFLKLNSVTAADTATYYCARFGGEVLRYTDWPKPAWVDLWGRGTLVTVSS VL: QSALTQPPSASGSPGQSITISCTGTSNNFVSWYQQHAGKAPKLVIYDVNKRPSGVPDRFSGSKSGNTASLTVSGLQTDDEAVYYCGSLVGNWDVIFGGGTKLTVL next?
[out] 0.7

[in] Can you check PGT-131 (antibody, V domains shown) VH: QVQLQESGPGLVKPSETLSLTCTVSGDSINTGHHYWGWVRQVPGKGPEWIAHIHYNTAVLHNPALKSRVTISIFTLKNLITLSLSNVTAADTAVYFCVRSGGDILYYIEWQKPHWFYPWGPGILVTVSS VL: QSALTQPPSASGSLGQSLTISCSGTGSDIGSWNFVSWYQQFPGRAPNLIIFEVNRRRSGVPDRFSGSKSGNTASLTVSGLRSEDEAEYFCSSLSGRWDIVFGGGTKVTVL next?
[out] 0.7

[in] Can you check PGT-130 (antibody, V domains shown) VH: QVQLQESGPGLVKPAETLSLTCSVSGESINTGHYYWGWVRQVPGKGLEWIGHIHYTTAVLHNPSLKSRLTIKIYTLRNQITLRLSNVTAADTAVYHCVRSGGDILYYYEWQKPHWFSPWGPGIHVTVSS VL: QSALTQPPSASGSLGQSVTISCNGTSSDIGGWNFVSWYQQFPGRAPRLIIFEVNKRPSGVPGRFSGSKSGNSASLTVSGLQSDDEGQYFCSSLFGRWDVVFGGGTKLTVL next?
[out] 0.6
